Provide the reported HRG-induced Akt activation (log2) of each item.
tested on: MCF7; assay: HRG-induced Akt activation (dPAkt = log2 pAkt/Akt HRG-stimulated minus log2 pAkt/Akt basal) (log2 ratio difference); higher = stronger HRG-induced Akt(T308) phosphorylation; conditions: miRNA mimic concentration 10 nM; time after transfection 72 h; heregulin 10 ng/ml; stimulation time 1 h
// print number alone

query: Give the value of HRG-induced Akt activation (log2) reported for the following: `CUUCUUGUGCUCUAGGAUUGU`
result: 1.13

query: Quote HRG-induced Akt activation (log2) reported for `AAAAGUAUUUGCGGGUUUUGUC` please.
result: 1.58

query: Return value of HRG-induced Akt activation (log2) for input `AUCCGCGCUCUGACUCUCUGCC` , no commentary.
result: 1.53

query: For the sequence `CCUAGUAGGUGUCCAGUAAGUGU` , give its reported HRG-induced Akt activation (log2).
result: 1.04

query: Annotate the sequence `ACGGGUUAGGCUCUUGGGAGCU` with its measured HRG-induced Akt activation (log2).
result: 1.38

query: Read off the recorded HRG-induced Akt activation (log2) for `UACAGUACUGUGAUAACUGAA`
result: 1.57

query: Answer with the recorded HRG-induced Akt activation (log2) of `GACACGGGCGACAGCUGCGGCCC` only.
result: 1.03

query: Please report the measured HRG-induced Akt activation (log2) for `GUGUCUUUUGCUCUGCAGUCA`
result: 1.75

query: Specify HRG-induced Akt activation (log2) for `UGAGCUGCUGUACCAAAAU` and stop.
result: 2.11

query: Tell us which HRG-induced Akt activation (log2) value is on record for `AGUGGGGAACCCUUCCAUGAGG`
result: 1.94

query: Fill in reported HRG-induced Akt activation (log2) for this entry: `UUAUGGUUUGCCUGGGACUGAG`
result: 1.74

query: Input `UGAGCGCCUCGACGACAGAGCCG` , output reported HRG-induced Akt activation (log2).
result: 1.29

query: Output measured HRG-induced Akt activation (log2) for this item: `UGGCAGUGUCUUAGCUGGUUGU`
result: 1.99

query: Output measured HRG-induced Akt activation (log2) for this item: `UGUAAACAUCCUUGACUGGAAG`
result: 1.12

query: Indicate its recorded HRG-induced Akt activation (log2); the sequence in question is `CAACACCAGUCGAUGGGCUGU`
result: 1.34

query: Identify measured HRG-induced Akt activation (log2) associated with `UAGUACUGUGCAUAUCAUCUAU`
result: 1.44

query: Read off the recorded HRG-induced Akt activation (log2) for `AUCAUAGAGGAAAAUCCAUGUU`
result: 1.64

query: Hello, please tell me recorded HRG-induced Akt activation (log2) for this one: `CACGCUCAUGCACACACCCACA`
result: 1.68

query: Respond only with HRG-induced Akt activation (log2) recorded for `CAAUCAGCAAGUAUACUGCCCU`
result: 1.93

query: Output HRG-induced Akt activation (log2) of `AGGGACUUUCAGGGGCAGCUGU`
result: 1.48

query: State its HRG-induced Akt activation (log2): `AGGGCUUAGCUGCUUGUGAGCA`
result: 1.75

query: Fill in HRG-induced Akt activation (log2) for record `GAUUGCUCUGCGUGCGGAAUCGAC`
result: 1.24

query: Dear colleague, please send me the reported HRG-induced Akt activation (log2) for `CGGGGCAGCUCAGUACAGGAU` when you can.
result: 0.98

query: Kindly indicate its recorded HRG-induced Akt activation (log2). Item: `AUAAUACAUGGUUAACCUCUUU`
result: 1.2

query: Return HRG-induced Akt activation (log2) for the following sequence: `CGGCAACAAGAAACUGCCUGAG`
result: 1.46

query: Let me know recorded HRG-induced Akt activation (log2) for `UGGCCCUGACUGAAGACCAGCAGU` , thanks.
result: 1.11

query: Give me measured HRG-induced Akt activation (log2), please, for this sequence: `UCUAUACAGACCCUGGCUUUUC`
result: 1.14

query: Note HRG-induced Akt activation (log2) for the sequence shown: `UAAUCUCAGCUGGCAACUGUGA`
result: 1.38

query: Supply reported HRG-induced Akt activation (log2) belonging to this sequence: `UUGGGACAUACUUAUGCUAAA`
result: 1.28

query: Supply measured HRG-induced Akt activation (log2) of `UGGUGGGCCGCAGAACAUGUGC` in your reply.
result: 1.74

query: Look up and report measured HRG-induced Akt activation (log2) for this entry: `GUGACAUCACAUAUACGGCAGC`
result: 1.08

query: Find the measured HRG-induced Akt activation (log2) of `AAUGCACCCGGGCAAGGAUUCU` and report it.
result: 1.91
